System: Streptococcus pneumoniae
Assay: Antibacterial activity against erythromycin-resistant Streptococcus pneumoniae A22072 expressing mef gene by broth microdilution method
Type: functional
Would you mind telling me the reported MIC of each entry?
One number for each entry, in µg/mL.

>>> recorded_result("CCCCCNC(=O)O[C@@H]1[C@@H](C)N(C)C[C@H](C)C[C@@](C)(O)[C@H](O[C@@H]2O[C@H](C)C[C@H](N(C)C)[C@H]2O)[C@@H](C)[C@H](O[C@H]2C[C@@](C)(OC)[C@@H](OC(=O)NCCc3ccccc3Cl)[C@H](C)O2)[C@@H](C)C(=O)O[C@H](CC)[C@@]1(C)O")
0.5
>>> recorded_result("CC[C@H]1OC(=O)[C@H](C)[C@@H](O[C@H]2C[C@@](C)(OC)[C@@H](OC(=O)NCCc3ccc(O)cc3)[C@H](C)O2)[C@H](C)[C@@H](O[C@@H]2O[C@H](C)C[C@H](N(C)C)[C@H]2O)[C@](C)(O)C[C@@H](C)CN(C)[C@H](C)[C@H]2OC(=O)O[C@@]21C")
1

Batch of 4 compounds: report MIC for each.
1. CC[C@H]1OC(=O)[C@H](C)[C@@H](O[C@H]2C[C@@](C)(OC)[C@@H](OC(=O)NCCc3ccc(O)cc3)[C@H](C)O2)[C@H](C)[C@@H](O[C@@H]2O[C@H](C)C[C@H](N(C)C)[C@H]2O)[C@](C)(O)C[C@@H](C)CN(C)[C@H](C)[C@@H](OC(=O)NCCc2ccccc2Cl)[C@]1(C)O
2. CC[C@H]1OC(=O)[C@H](C)[C@@H](O[C@H]2C[C@@](C)(OC)[C@@H](OC(=O)NCCc3ccccc3Cl)[C@H](C)O2)[C@H](C)[C@@H](O[C@@H]2O[C@H](C)C[C@H](N(C)C)[C@H]2O)[C@](C)(O)C[C@@H](C)CN(C)[C@H](C)[C@@H](OC(=O)NCc2ccccc2)[C@]1(C)O
3. CC[C@H]1OC(=O)[C@H](C)[C@@H](O[C@H]2C[C@@](C)(OC)[C@@H](O)[C@H](C)O2)[C@H](C)[C@@H](O[C@@H]2O[C@H](C)C[C@H](N(C)C)[C@H]2O)[C@](C)(OC)C[C@@H](C)C(=O)[C@H](C)[C@@H](O)[C@]1(C)O [CLARITHROMYCIN]
4. CC[C@H]1OC(=O)[C@H](C)[C@@H](O[C@H]2C[C@@](C)(OC)[C@@H](OC(=O)NCCc3ccccc3Cl)[C@H](C)O2)[C@H](C)[C@@H](O[C@@H]2O[C@H](C)C[C@H](N(C)C)[C@H]2O)[C@](C)(O)C[C@@H](C)CN(C)[C@H](C)[C@@H](OC(=O)NCCc2ccc(O)cc2)[C@]1(C)O

Result block:
1. 0.25
2. 0.25
3. 4
4. 0.06

Query block: Query (compound): `CC[C@H]1OC(=O)[C@H](C)[C@@H](O[C@H]2C[C@@](C)(OC)[C@@H](OC(=O)NCc3ccc(F)cc3)[C@H](C)O2)[C@H](C)[C@@H](O[C@@H]2O[C@H](C)C[C@H](N(C)C)[C@H]2O)[C@](C)(O)C[C@@H](C)CN(C)[C@H](C)[C@@H](OC(=O)NCCc2ccccc2Cl)[C@]1(C)O` ; field requested: MIC
Result block: 0.12

src = ChEMBL document CHEMBL1153924
